- test_protocol: clinical
- Assay type: in vivo, human
- condition_info: human, in vivo, po, third subsequent day; read-out: subsequent daily serum digitoxin level
measurement_label: concentration at 72 h (ng/mL)
Numeric only. Scale: ng/mL

Please list concentration at 72 h recorded for the molecule C[C@H]1O[C@@H](O[C@H]2[C@@H](O)C[C@H](O[C@H]3[C@@H](O)C[C@H](O[C@H]4CC[C@@]5(C)[C@H](CC[C@@H]6[C@@H]5CC[C@]5(C)[C@@H](C7=CC(=O)OC7)CC[C@]65O)C4)O[C@@H]3C)O[C@@H]2C)C[C@H](O)[C@@H]1O [digitoxin]
24.4

----------
- test_protocol: clinical
- Format: in vivo, human
- condition_info: human, in vivo, po, spot urine, first of the two days after admission; read-out: apparent digitoxin concentration in urine
measurement_label: concentration at 24 h (ng/mL)
Numeric only. Scale: ng/mL

Please list concentration at 24 h recorded for the molecule C[C@H]1O[C@@H](O[C@H]2[C@@H](O)C[C@H](O[C@H]3[C@@H](O)C[C@H](O[C@H]4CC[C@@]5(C)[C@H](CC[C@@H]6[C@@H]5CC[C@]5(C)[C@@H](C7=CC(=O)OC7)CC[C@]65O)C4)O[C@@H]3C)O[C@@H]2C)C[C@H](O)[C@@H]1O [digitoxin]
848
